Attribute: Factor VIIIa decay rate, FIXa (+)
# assayed_target: T1, factor VIIIa A1/A3C1C2 dimer, wild type (human, UniProt P00451 20-391; P00451 1709-2351)
# T1 sequence 1: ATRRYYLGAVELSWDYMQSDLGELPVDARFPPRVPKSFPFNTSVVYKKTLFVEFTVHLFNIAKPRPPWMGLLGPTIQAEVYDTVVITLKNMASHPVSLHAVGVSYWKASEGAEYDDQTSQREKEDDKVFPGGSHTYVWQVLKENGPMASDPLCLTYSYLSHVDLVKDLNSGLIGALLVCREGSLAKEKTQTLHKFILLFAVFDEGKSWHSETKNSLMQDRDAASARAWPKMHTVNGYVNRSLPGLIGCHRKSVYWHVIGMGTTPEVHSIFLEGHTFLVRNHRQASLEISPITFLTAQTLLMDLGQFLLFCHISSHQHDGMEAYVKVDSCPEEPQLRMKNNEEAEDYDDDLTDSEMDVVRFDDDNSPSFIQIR
# T1 sequence 2: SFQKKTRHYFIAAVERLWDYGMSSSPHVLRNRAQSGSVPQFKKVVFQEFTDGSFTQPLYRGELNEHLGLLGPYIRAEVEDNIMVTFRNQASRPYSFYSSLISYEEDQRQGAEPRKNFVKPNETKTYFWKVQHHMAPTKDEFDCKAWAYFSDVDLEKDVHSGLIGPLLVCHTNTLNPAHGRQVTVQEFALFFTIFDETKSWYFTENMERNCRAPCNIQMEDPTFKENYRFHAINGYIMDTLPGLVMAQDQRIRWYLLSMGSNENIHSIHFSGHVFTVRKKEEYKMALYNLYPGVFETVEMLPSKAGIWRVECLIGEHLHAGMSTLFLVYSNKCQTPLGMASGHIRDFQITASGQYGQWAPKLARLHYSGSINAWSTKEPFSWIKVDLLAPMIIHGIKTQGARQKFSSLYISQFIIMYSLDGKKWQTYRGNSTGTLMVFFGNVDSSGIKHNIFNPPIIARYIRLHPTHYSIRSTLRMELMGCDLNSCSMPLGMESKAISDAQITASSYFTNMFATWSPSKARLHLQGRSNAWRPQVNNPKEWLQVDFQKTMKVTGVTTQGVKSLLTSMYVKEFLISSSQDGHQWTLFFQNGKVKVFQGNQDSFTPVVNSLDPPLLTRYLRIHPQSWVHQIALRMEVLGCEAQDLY
# assay_method_text: cell-based or functional assay
Express the result in min⁻¹ but write the number alone.

See these solved cases before continuing.
Factor VIIIa decay rate, FIXa (+) lookup needed for factor VIIIa A2 subunit, D666A (other) SVAKKHPKTWVHYIAAEEEDWDYAPLVLAPDDRSYKSQYLNNGPQRIGRKYKKVRFMAYTDETFKTREAIQHESGILGPLLYGEVGDTLLIIFKNQASRPYNIYPHGITDVRPLYSRRLPKGVKHLKDFPILPGEIFKYKWTVTVEDGPTKSDPRCLTRYYSSFVNMERDLASGLIGPLLICYKESVDQRGNQIMSDKRNVILFSVFDENRSWYLTENIQRFLPNPAGVQLEDPEFQASNIMHSINGYVFDSLQLSVCLHEVAYWYILSIGAQTDFLSVFFSGYTFKHKMVYEATLTLFPFSGETVFMSMENPGLWILGCHNSDFRNRGMTALLKVSSCDKNTGDYYEDSYEDISAYLLSKNNAIEPR , thanks.
0.0545

Please give the measured Factor VIIIa decay rate, FIXa (+) for this binder: factor VIIIa A2 subunit, S650A (other) SVAKKHPKTWVHYIAAEEEDWDYAPLVLAPDDRSYKSQYLNNGPQRIGRKYKKVRFMAYTDETFKTREAIQHESGILGPLLYGEVGDTLLIIFKNQASRPYNIYPHGITDVRPLYSRRLPKGVKHLKDFPILPGEIFKYKWTVTVEDGPTKSDPRCLTRYYSSFVNMERDLASGLIGPLLICYKESVDQRGNQIMSDKRNVILFSVFDENRSWYLTENIQRFLPNPAGVQLEDPEFQASNIMHSINGYVFDSLQLSVCLHEVAYWYILSIGAQTDFLAVFFSGYTFKHKMVYEDTLTLFPFSGETVFMSMENPGLWILGCHNSDFRNRGMTALLKVSSCDKNTGDYYEDSYEDISAYLLSKNNAIEPR
0.0317

Item under review: factor VIIIa A2 subunit, D696A (other) SVAKKHPKTWVHYIAAEEEDWDYAPLVLAPDDRSYKSQYLNNGPQRIGRKYKKVRFMAYTDETFKTREAIQHESGILGPLLYGEVGDTLLIIFKNQASRPYNIYPHGITDVRPLYSRRLPKGVKHLKDFPILPGEIFKYKWTVTVEDGPTKSDPRCLTRYYSSFVNMERDLASGLIGPLLICYKESVDQRGNQIMSDKRNVILFSVFDENRSWYLTENIQRFLPNPAGVQLEDPEFQASNIMHSINGYVFDSLQLSVCLHEVAYWYILSIGAQTDFLSVFFSGYTFKHKMVYEDTLTLFPFSGETVFMSMENPGLWILGCHNSAFRNRGMTALLKVSSCDKNTGDYYEDSYEDISAYLLSKNNAIEPR . Reported Factor VIIIa decay rate, FIXa (+)?
0.0118

Okay, next one:
What value of Factor VIIIa decay rate, FIXa (+) has been recorded for this entry: factor VIIIa A2 subunit, N684A (other) SVAKKHPKTWVHYIAAEEEDWDYAPLVLAPDDRSYKSQYLNNGPQRIGRKYKKVRFMAYTDETFKTREAIQHESGILGPLLYGEVGDTLLIIFKNQASRPYNIYPHGITDVRPLYSRRLPKGVKHLKDFPILPGEIFKYKWTVTVEDGPTKSDPRCLTRYYSSFVNMERDLASGLIGPLLICYKESVDQRGNQIMSDKRNVILFSVFDENRSWYLTENIQRFLPNPAGVQLEDPEFQASNIMHSINGYVFDSLQLSVCLHEVAYWYILSIGAQTDFLSVFFSGYTFKHKMVYEDTLTLFPFSGETVFMSMEAPGLWILGCHNSDFRNRGMTALLKVSSCDKNTGDYYEDSYEDISAYLLSKNNAIEPR
0.41

meta.source: patent US20090118184A1
